melting point by entry:
measured metric: melting point

- compound: "C[C@H](COc1ccc(NC(=O)Nc2ccc(Cl)c(C(F)(F)F)c2)cc1)[C@H]1CCC2C3CC=C4C(C)(C)C(N)CC[C@]4(C)C3CC[C@@]21C (some centres unmarked)"
  recorded value: "197.1 to 198.6 °C"
- compound: "C[C@H](CCCO)[C@H]1CCC2C3CC=C4C(C)(C)C(NCCCCl)CC[C@]4(C)C3CC[C@@]21C (some centres unmarked)"
  recorded value: "162.7 to 165.5 °C"
- compound: "CCCNC1CC[C@@]2(C)C(=CCC3C2CC[C@@]2(C)C3CC[C@@H]2[C@H](C)CCCO)C1(C)C (some centres unmarked)"
  recorded value: "147.5 to 150.4 °C"
- compound: "C[C@H](CCCO)[C@H]1CCC2C3CC=C4C(C)(C)C(NCCCO)CC[C@]4(C)C3CC[C@@]21C (some centres unmarked)"
  recorded value: "183.5 to 186.8 °C"
- compound: "C[C@H](CCCO)[C@H]1CCC2C3C(=NO)C=C4C(C)(C)C(N)CC[C@]4(C)C3CC[C@@]21C (some centres unmarked)"
  recorded value: "218.3 to 219.9 °C"
- compound: "C[C@H](CCCOc1ccc(NC(=O)Nc2ccc(Cl)c(C(F)(F)F)c2)cc1)[C@H]1CCC2C3CC=C4C(C)(C)C(N)CC[C@]4(C)C3CC[C@@]21C (some centres unmarked)"
  recorded value: "192.3 to 194.5 °C"
- compound: "C[C@H](CCCO)[C@H]1CCC2C3C(O)C=C4C(C)(C)C(N)CC[C@]4(C)C3CC[C@@]21C (some centres unmarked)"
  recorded value: "171.4 to 173.2 °C"
- compound: "C[C@H](CCCO)[C@H]1CCC2C3CC=C4C(C)(C)C(NCCO)CC[C@]4(C)C3CC[C@@]21C (some centres unmarked)"
  recorded value: "184.3 to 187.5 °C"
- compound: "CCC(O)CC[C@@H](C)[C@H]1CCC2C3CC=C4C(C)(C)C(N)CC[C@]4(C)C3CC[C@@]21C (some centres unmarked)"
  recorded value: "> 300 °C"
- compound: "CCCC(O)CC[C@@H](C)[C@H]1CCC2C3CC=C4C(C)(C)C(N)CC[C@]4(C)C3CC[C@@]21C (some centres unmarked)"
  recorded value: "> 300 °C"
- compound: "C[C@H](CCCO)[C@H]1CCC2C3CC=C4C(C)(C)C(N5CCC5)CC[C@]4(C)C3CC[C@@]21C (some centres unmarked)"
  recorded value: "174.9 to 177.6 °C"
- compound: "C[C@H](CCCO)[C@H]1CCC2C3C(=O)C=C4C(C)(C)C(N)CC[C@]4(C)C3CC[C@@]21C (some centres unmarked)"
  recorded value: "151.3 to 153.7 °C"
- compound: "C[C@H](CCCO)[C@H]1CCC2C3=CC=C4C(C)(C)C(N)CC[C@]4(C)C3CC[C@@]21C (some centres unmarked)"
  recorded value: "179.5 to 181.3 °C"
- compound: "CC(C)C(O)CC[C@@H](C)[C@H]1CCC2C3CC=C4C(C)(C)C(N)CC[C@]4(C)C3CC[C@@]21C (some centres unmarked)"
  recorded value: "> 300 °C"
